List of AC50 tested on Sodium-dependent dopamine transporter (Homo sapiens, UniProt Q01959). Also: assay procedure not described here.
Sequence (Q01959 whole entry): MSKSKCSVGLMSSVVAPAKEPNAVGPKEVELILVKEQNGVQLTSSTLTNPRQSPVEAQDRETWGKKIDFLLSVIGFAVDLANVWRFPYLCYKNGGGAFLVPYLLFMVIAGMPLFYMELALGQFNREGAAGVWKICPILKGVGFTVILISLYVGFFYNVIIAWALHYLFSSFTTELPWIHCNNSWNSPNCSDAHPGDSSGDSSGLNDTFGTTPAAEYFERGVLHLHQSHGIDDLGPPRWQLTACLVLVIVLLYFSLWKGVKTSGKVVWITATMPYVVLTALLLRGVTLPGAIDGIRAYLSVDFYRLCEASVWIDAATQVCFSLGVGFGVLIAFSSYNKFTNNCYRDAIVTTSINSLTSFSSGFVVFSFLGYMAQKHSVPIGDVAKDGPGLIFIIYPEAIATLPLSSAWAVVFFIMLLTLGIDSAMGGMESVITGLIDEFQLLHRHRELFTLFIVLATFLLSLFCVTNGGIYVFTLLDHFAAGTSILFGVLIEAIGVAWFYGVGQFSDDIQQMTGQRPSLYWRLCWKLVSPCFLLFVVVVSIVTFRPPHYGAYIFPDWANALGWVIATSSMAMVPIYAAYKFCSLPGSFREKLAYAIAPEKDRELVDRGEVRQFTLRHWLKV

Dear colleague, I am looking for the recorded AC50 of the following compound: CCC1(CC)C(=O)NCC(C)C1=O (configuration not stated)
> 30 µM

Subsequent entry: CCCC(C)C1(CC)C(=O)NC(=O)NC1=O (configuration not stated)
> 10 µM

Subsequent entry: COCCCN1CCC(NC(=O)c2cc(Cl)c(N)c3c2OCC3)CC1 [PRUCALOPRIDE]
> 30 µM

Subsequent entry: "CCCc1nc(C(C)(C)O)c(C(=O)OCc2oc(=O)oc2C)n1Cc1ccc(-c2ccccc2-c2nnn[nH]2)cc1"
> 30 µM

Further cases:
Dear colleague, I am looking for the recorded AC50 of the following compound: "C[C@H]1COc2c(C3(N)CC3)c(F)cc3c(=O)c(C(=O)O)cn1c23"
> 10 µM

Subsequent entry: CN1C(=O)CCS(=O)(=O)C1c1ccc(Cl)cc1 (configuration not stated)
> 10 µM

Subsequent entry: "COc1cc2c(N)nc(N3CCN(C(=O)OCC(C)(C)O)CC3)nc2c(OC)c1OC"
> 30 µM

Subsequent entry: "CC(C)(C)c1cc(C(C)(C)C)c(NC(=O)c2c[nH]c3ccccc3c2=O)cc1O"
11.2 µM

Subsequent entry: "CN(C)CCc1c[nH]c2ccc(C[C@H]3COC(=O)N3)cc12"
> 30 µM
